- Test target: RET G810R (Homo sapiens, UniProt P07949, G810R)
- Sequence (P07949 29-1114 G810R): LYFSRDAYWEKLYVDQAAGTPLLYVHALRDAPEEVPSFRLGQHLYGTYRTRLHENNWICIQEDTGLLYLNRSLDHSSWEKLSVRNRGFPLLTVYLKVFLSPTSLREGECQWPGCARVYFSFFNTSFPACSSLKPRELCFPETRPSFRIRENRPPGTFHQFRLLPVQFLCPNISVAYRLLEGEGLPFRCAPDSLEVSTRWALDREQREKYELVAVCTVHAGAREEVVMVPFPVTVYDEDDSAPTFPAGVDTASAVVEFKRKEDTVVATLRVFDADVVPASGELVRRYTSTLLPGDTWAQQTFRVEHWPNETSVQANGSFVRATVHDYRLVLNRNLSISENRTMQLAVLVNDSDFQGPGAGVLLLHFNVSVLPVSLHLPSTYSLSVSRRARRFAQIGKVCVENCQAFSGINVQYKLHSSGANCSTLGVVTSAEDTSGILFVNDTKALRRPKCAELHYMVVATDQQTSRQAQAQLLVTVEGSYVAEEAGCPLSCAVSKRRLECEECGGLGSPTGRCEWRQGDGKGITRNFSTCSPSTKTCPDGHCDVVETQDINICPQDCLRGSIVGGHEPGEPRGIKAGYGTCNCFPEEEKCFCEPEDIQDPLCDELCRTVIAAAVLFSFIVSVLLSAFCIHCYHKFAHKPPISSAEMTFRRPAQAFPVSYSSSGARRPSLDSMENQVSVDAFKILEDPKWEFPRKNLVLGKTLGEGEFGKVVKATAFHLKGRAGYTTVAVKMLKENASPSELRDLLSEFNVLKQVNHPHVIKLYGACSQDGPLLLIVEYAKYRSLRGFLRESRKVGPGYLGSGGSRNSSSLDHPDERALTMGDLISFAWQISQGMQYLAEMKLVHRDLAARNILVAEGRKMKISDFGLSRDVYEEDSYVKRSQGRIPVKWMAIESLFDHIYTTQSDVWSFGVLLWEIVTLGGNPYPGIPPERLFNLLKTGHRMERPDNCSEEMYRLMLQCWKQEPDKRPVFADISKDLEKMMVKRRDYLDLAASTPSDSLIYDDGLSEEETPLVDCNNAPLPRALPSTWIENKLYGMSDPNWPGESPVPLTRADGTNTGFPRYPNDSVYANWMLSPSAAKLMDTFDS
- Experiment summary: In vitro kinase activity assay (mobility shift assay), RET G810R
- Experimental context: ATP 201 μM, reaction time 4 h
Measured metric: IC50 (nM)

Consider the worked cases shown below.
- Molecule: "CNC(=O)Nc1ccc(-c2cn3ncc4c3nc2NCc2cc(F)cnc2O[C@@H](C)CNC4=O)cc1 [Compound 32]"
  Measured metric: "IC50"
  Value units: "nM"
  Value observed: 98.2
- Molecule: "C[C@H]1CNC(=O)c2cnn3cc(-c4ccc5[nH]ccc5c4Cl)c(nc23)NCc2cc(F)cnc2O1 [Compound 34]"
  Measured metric: "IC50"
  Value units: "nM"
  Value observed: 377
- Molecule: "CCOC(=O)Nc1ccc(-c2c3nc4c(cnn4c2N)C(=O)NC[C@H](C)Oc2ncc(F)cc2CN3)cc1 [Example 62]"
  Measured metric: "IC50"
  Value units: "nM"
  Value observed: 15

A. C[C@H]1CNC(=O)c2cnn3c(N)c(-c4ccccc4)c(nc23)NCc2cc(F)cnc2O1 [Compound 28]
B. CNc1ccc(-c2cn3ncc4c3nc2NCc2cc(F)cnc2O[C@@H](C)CNC4=O)c(Cl)c1 [Compound 39]
C. CCOC(=O)Nc1ccc(-c2c3nc4c(cnn4c2N)C(=O)NC[C@H](C)Oc2ncc(F)cc2CN3)c(F)c1 [Example 71]
List by increasing IC50. Provide your answer as the labels ordered per the instruction.
A, C, B

----------
- Test target: BTK C481S (Homo sapiens, UniProt Q06187, C481S)
- Sequence (Q06187 whole entry C481S): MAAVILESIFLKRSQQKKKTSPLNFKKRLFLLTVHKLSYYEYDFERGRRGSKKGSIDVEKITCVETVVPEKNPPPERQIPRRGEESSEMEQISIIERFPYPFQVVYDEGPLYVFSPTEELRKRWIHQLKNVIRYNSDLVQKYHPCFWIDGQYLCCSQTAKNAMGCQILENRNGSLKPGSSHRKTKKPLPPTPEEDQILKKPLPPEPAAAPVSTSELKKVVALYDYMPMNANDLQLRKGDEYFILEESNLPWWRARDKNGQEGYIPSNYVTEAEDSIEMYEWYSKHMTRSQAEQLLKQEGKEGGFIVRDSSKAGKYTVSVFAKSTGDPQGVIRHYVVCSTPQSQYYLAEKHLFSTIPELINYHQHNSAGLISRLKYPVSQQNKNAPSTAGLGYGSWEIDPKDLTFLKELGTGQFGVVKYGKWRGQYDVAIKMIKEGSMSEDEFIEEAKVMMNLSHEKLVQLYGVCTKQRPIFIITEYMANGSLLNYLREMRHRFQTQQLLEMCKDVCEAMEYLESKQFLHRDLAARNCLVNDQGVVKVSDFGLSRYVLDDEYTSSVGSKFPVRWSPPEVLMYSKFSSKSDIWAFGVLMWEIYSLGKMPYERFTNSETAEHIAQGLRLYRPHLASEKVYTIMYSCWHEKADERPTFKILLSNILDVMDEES
- Experiment summary: In vitro kinase activity assay (mobility shift assay), BTK C481S
- Experimental context: ATP 90 μM, reaction time 30 min
Measured metric: IC50 (nM)

- Compound: "COC(=O)Nc1ccc(-c2cn3ncc4c3nc2NCc2cc(F)cnc2O[C@@H](C)CNC4=O)c(Cl)c1"
  IC50 (nM): 16.9

A. COC(=O)Nc1ccc(-c2c3nc4c(cnn4c2N)C(=O)NC[C@H](C)Oc2ncc(F)cc2CN3)cc1
B. Nc1c(-c2ccccc2)c2nc3c(cnn13)C(=O)NC1CCCC1Oc1ncc(F)cc1CN2 (stereo not shown)
Hi team, can someone confirm which has the larger IC50: A or B ? Thanks. # respond with the chosen item's label
A
(A: 15 nM, B: 1.7 nM)

----------
- Test target: RET V804M (Homo sapiens, UniProt P07949, V804M)
- Sequence (P07949 29-1114 V804M): as the sequence (P07949 29-1114 G810R) above, with V776M, R782G counted along it
- Experiment summary: In vitro kinase activity assay (mobility shift assay), RET V804M
- Experimental context: ATP 5.4 μM, reaction time 60 min
Measured metric: IC50 (nM)

- Smiles input: "COC(=O)Nc1ccc(-c2cn3ncc4c3nc2NCc2cc(F)cnc2O[C@@H](C)CNC4=O)c(Cl)c1"
  Value units: "nM"
  Value observed: 3.25

I. C[C@H]1CNC(=O)c2cnn3c(N)c(-c4ccc(NC(=O)OCC(F)(F)F)cc4)c(nc23)NCc2cc(F)cnc2O1
II. C[C@H]1CNC(=O)c2cnn3c(N)c(-c4ccccc4)c(nc23)NCc2cc(F)cnc2O1
Looking at I and II , which one comes out lower in IC50 terms? Pick one and reply with its label.
II
(II: 9.18 nM, I: 15 nM)

----------
Below are IC50 values recorded for BTK (Homo sapiens).
Measured metric: IC50 (nM)

P. CC(C)OC(=O)Nc1ccc(-c2cn3ncc4c3nc2NCc2cc(F)cnc2O[C@@H](C)CNC4=O)c(Cl)c1 [Compound 45]
Q. C[C@H]1CNC(=O)c2cnn3cc(-c4ccc(N5CCOC5=O)cc4Cl)c(nc23)NCc2cc(F)cnc2O1 [Compound 40]
R. C[C@H]1CNC(=O)c2cnn3c(N)c(-c4ccc(Cl)cc4)c(nc23)NCc2cc(F)cnc2O1 [Compound 50]
S. CNc1ccc(-c2c3nc4c(cnn4c2N)C(=O)NC[C@H](C)Oc2ncc(F)cc2CN3)cc1 [Example 54]
With regard to IC50, arrange the entries in ascending order, please. # answer = labels listed in requested order
R, S, Q, P
